Hello, the source for this data is patent US9328138B2, in case you need it.

- target.or.system: HCV genotype 1b (BK) NS3 modified enzyme with a R155K mutation (Hepatitis C virus genotype 1b, UniProt P26663, R1181K)
- Construct: HCV genotype 1b (BK) NS3 modified enzyme
- assay.protocol: HCV NS3 protease time-resolved fluorescence (TRF) assay, genotype 1b R155K
- Type: biochemical
- study.conditions: Ki 1b R155K, genotype 1b (BK) NS3 R155K; single value
pKi: −log10 of the molar value.

molecule	pKi
C=C[C@@H]1C[C@]1(NC(=O)[C@@H]1C[C@@H]2CN1C(=O)[C@H](C(C)(C)C)NC(=O)O[C@@H]1C[C@H]1CCCCCc1c(nc3ccccc3c1OCCCN1CC(C#N)C1)O2)C(=O)NS(=O)(=O)C1(C)CC1 [Example 184]	10.24
C=C[C@@H]1C[C@]1(NC(=O)[C@@H]1C[C@@H]2CN1C(=O)[C@H](C(C)(C)C)NC(=O)O[C@@H]1C[C@H]1CCCCCc1c(nc3ccccc3c1OCCCN1CCC[C@@H]1C(N)=O)O2)C(=O)NS(=O)(=O)C1(C)CC1 [Example 208]	9.96
C=C[C@@H]1C[C@]1(NC(=O)[C@@H]1C[C@@H]2CN1C(=O)[C@H](C(C)(C)C)NC(=O)O[C@@H]1C[C@H]1CCCCCc1c(nc3cc(C)ccc3c1OCCCN1CC[C@H](N(C)C)C1)O2)C(=O)NS(=O)(=O)C1(C)CC1 [Example 148]	10.19
C=C[C@@H]1C[C@]1(NC(=O)[C@@H]1C[C@@H]2CN1C(=O)[C@H](CC1CCCCC1)NC(=O)O[C@@H]1C[C@H]1CCCCCc1c(nc3ccccc3c1OCCN1CCOCC1)O2)C(=O)NS(=O)(=O)C1(C)CC1 [Example 125]	8.39
C=C[C@@H]1C[C@]1(NC(=O)[C@@H]1C[C@@H]2CN1C(=O)[C@H](C1CCCC1)NC(=O)O[C@]1(C)C[C@H]1CC/C=C/Cc1c(nc3ccccc3c1O)O2)C(=O)NS(=O)(=O)C1CC1 [Example 19]	10.04
C=C[C@@H]1C[C@]1(NC(=O)[C@@H]1C[C@@H]2CN1C(=O)[C@H](C(C)C)NC(=O)O[C@@H]1C[C@H]1CCCCCc1c(nc3ccccc3c1OCCN1CCOCC1)O2)C(=O)NS(=O)(=O)C1(C)CC1 [Example 124]	9.10
C=C[C@@H]1C[C@]1(NC(=O)[C@@H]1C[C@@H]2CN1C(=O)[C@H](C(C)(C)C)NC(=O)O[C@@H]1CCC[C@H]1CCCCCc1c(nc3ccccc3c1OCCCN1CCOCC1)O2)C(=O)NS(=O)(=O)C1CC1 [Example 98]	9.74
C=C[C@@H]1C[C@]1(NC(=O)[C@@H]1C[C@@H]2CN1C(=O)[C@H](C(C)(C)C)NC(=O)O[C@@H]1CCC[C@H]1CCCCCc1c(nc3ccccc3c1O)O2)C(=O)NS(=O)(=O)C1(C(=C)C)CC1 [Example 37]	9.80
C=C[C@@H]1C[C@]1(NC(=O)[C@@H]1C[C@@H]2CN1C(=O)[C@H](C1CCCC1)NC(=O)O[C@@H]1CCC[C@H]1CC/C=C/Cc1c(nc3ccccc3c1OC(C)=O)O2)C(=O)NS(=O)(=O)C1CC1 [Example 39]	9.89
C=C[C@@H]1C[C@]1(NC(=O)[C@@H]1C[C@@H]2CN1C(=O)[C@H](C1CCCCC1)NC(=O)O[C@@H]1C[C@H]1CCCCCc1c(nc3c(OC)cccc3c1OCCN1CCCCC1)O2)C(=O)NS(=O)(=O)C1(C)CC1 [Example 216]	9.62
C=C[C@@H]1C[C@]1(NC(=O)[C@@H]1C[C@@H]2CN1C(=O)[C@H](C(C)(C)C)NC(=O)O[C@@H]1C[C@H]1CCCCCc1c(nc3ccccc3c1OC1CCN(CCOC)CC1)O2)C(=O)NS(=O)(=O)C1(C)CC1 [Example 225]	10.10
C=C[C@@H]1C[C@]1(NC(=O)[C@@H]1C[C@@H]2CN1C(=O)[C@H](C(C)(C)C)NC(=O)O[C@@H]1C[C@H]1CCCCCc1c(nc3cc(C(C)C)ccc3c1OCCCN1CCCC1)O2)C(=O)NS(=O)(=O)C1(C)CC1 [Example 159]	10.30
C=C[C@@H]1C[C@]1(NC(=O)[C@@H]1C[C@@H]2CN1C(=O)[C@H](C1CCCC1)NC(=O)O[C@@H]1C[C@H]1CC/C=C/Cc1c(nc3ccccc3c1OC)O2)C(=O)NS(=O)(=O)C1CC1 [Example 11]	9.59
C=C[C@@H]1C[C@]1(NC(=O)[C@@H]1C[C@@H]2CN1C(=O)[C@H](C(C)(C)C)NC(=O)O[C@@H]1C[C@H]1CCCCCc1c(nc3ccccc3c1OCCN1CCCCC1)O2)C(=O)NS(=O)(=O)C1(C)CC1 [Example 134]	9.25
CC1(S(=O)(=O)NC(=O)[C@@]23C[C@H]2/C=C\CCCCC[C@@H]2NC(=O)O[C@@H]4C[C@H]4CCC/C=C/c4c(nc5ccccc5c4OCCN4CCCCC4)O[C@@H]4C[C@@H](C(=O)N3)N(C4)C2=O)CC1 [Example 296]	9.57
C=C[C@@H]1C[C@]1(NC(=O)[C@@H]1C[C@@H]2CN1C(=O)[C@H](C(C)(C)C)NC(=O)O[C@@H]1C[C@H]1CCCCCc1c(nc3ccccc3c1OCCNC(C)(C)C)O2)C(=O)NS(=O)(=O)C1(C)CC1 [Example 177]	9.85
C=C[C@@H]1C[C@]1(NC(=O)[C@@H]1C[C@@H]2CN1C(=O)[C@H](C(C)(C)C)NC(=O)O[C@@H]1C[C@H]1CCCCCc1c(nc3ccccc3c1OCCCN1CCCC1)O2)C(=O)NS(=O)(=O)C1(C)CC1 [Example 117]	10.10

* * *

- target.or.system: HCV NS3 protease genotype 3a (3A-1) (Hepatitis C virus genotype 3a)
- assay.protocol: HCV NS3 protease time-resolved fluorescence (TRF) assay, genotype 3a
- Assay type: biochemical
- study.conditions: Ki 3a
pKi: −log10 of the molar value.

compound	pKi
C=C[C@@H]1C[C@]1(NC(=O)[C@@H]1C[C@@H]2CN1C(=O)[C@H](C(C)(C)C)NC(=O)O[C@@H]1C[C@H]1CCCCCc1c(nc3ccccc3c1OCCCN1CC(F)C1)O2)C(=O)NS(=O)(=O)C1(C)CC1 [Example 155]	8.85
C=C[C@@H]1C[C@]1(NC(=O)[C@@H]1C[C@@H]2CN1C(=O)[C@H](C(C)C)NC(=O)O[C@@H]1C[C@H]1CCCCCc1c(nc3ccccc3c1OCCN1CCOCC1)O2)C(=O)NS(=O)(=O)C1(C)CC1 [Example 124]	8.00

* * *

- target.or.system: HCV NS3 protease genotype 3a (3A-1) (Hepatitis C virus genotype 3a, UniProt Q81258)
- assay.protocol: HCV NS3 protease time-resolved fluorescence (TRF) assay, genotype 3a
- Format: biochemical
- study.conditions: Ki 3a
Structures can show the parent of a compound that is named as a salt.
measured.endpoint: Ki (nM)

molecule	target.or.system	measured.endpoint	val
C=C[C@@H]1C[C@]1(NC(=O)[C@@H]1C[C@@H]2CN1C(=O)[C@H](C(C)(C)C)NC(=O)O[C@@H]1CCC[C@H]1CC/C=C/Cc1c(nc3ccccc3c1OCCCOCCOC)O2)C(=O)NS(=O)(=O)C1(C)CC1	HCV NS3 protease genotype 3a (3A-1) (Hepatitis C virus genotype 3a, UniProt Q81258)	Ki	0.95
C=C[C@@H]1C[C@]1(NC(=O)[C@@H]1C[C@@H]2CN1C(=O)[C@H](C(C)(C)C)NC(=O)O[C@@H]1CCC[C@H]1CC/C=C/Cc1c(nc3ccccc3c1OCCCOC)O2)C(=O)NS(=O)(=O)C1(C)CC1	HCV NS3 protease genotype 3a (3A-1) (Hepatitis C virus genotype 3a, UniProt Q81258)	Ki	1.6
C=C[C@@H]1C[C@]1(NC(=O)[C@@H]1C[C@@H]2CN1C(=O)[C@H](C1CCCC1)NC(=O)O[C@@H]1CCC[C@H]1CC/C=C/Cc1c(nc3cc(Cl)ccc3c1OC)O2)C(=O)NS(=O)(=O)C1CC1	HCV NS3 protease genotype 3a (3A-1) (Hepatitis C virus genotype 3a, UniProt Q81258)	Ki	2.9
C=C[C@@H]1C[C@]1(NC(=O)[C@@H]1C[C@@H]2CN1C(=O)[C@H](C1CCCCC1)NC(=O)O[C@@H]1C[C@H]1CCCCCc1c(nc3ccccc3c1OCCCN1CCOCC1)O2)C(=O)NS(=O)(=O)C1(C)CC1 [Example 240, formate]	HCV NS3 protease genotype 3a (3A-1) (Hepatitis C virus genotype 3a, UniProt Q81258)	Ki	2.9
C=C[C@@H]1C[C@]1(NC(=O)[C@@H]1C[C@@H]2CN1C(=O)[C@H](C1CCCC1)NC(=O)O[C@@H]1C[C@H]1CCCCCc1c(nc3ccccc3c1OC)O2)C(=O)NS(=O)(=O)C1CC1	HCV NS3 protease genotype 3a (3A-1) (Hepatitis C virus genotype 3a, UniProt Q81258)	Ki	35
C=C[C@@H]1C[C@]1(NC(=O)[C@@H]1C[C@@H]2CN1C(=O)[C@H](C1CCCC1)NC(=O)O[C@@H]1CCC[C@H]1CC/C=C/Cc1c(nc3ccccc3c1OCCCn1cnnc1)O2)C(=O)NS(=O)(=O)C1(C)CC1	HCV NS3 protease genotype 3a (3A-1) (Hepatitis C virus genotype 3a, UniProt Q81258)	Ki	0.55
C=C[C@@H]1C[C@]1(NC(=O)[C@@H]1C[C@@H]2CN1C(=O)[C@H](C(C)(C)C)NC(=O)O[C@@H]1C[C@H]1CCCCCc1c(nc3ccccc3c1OCCNC(C)(C)C)O2)C(=O)NS(=O)(=O)C1(C)CC1	HCV NS3 protease genotype 3a (3A-1) (Hepatitis C virus genotype 3a, UniProt Q81258)	Ki	1.1
C=C[C@@H]1C[C@]1(NC(=O)[C@@H]1C[C@@H]2CN1C(=O)[C@H](C1CCCCC1)NC(=O)O[C@@H]1C[C@H]1CCCCCc1c(nc3ccccc3c1OC1CCN(CC3CC3)CC1)O2)C(=O)NS(=O)(=O)C1(C)CC1 [Example 238, formate]	HCV NS3 protease genotype 3a (3A-1) (Hepatitis C virus genotype 3a, UniProt Q81258)	Ki	0.9
C=C[C@@H]1C[C@]1(NC(=O)[C@@H]1C[C@@H]2CN1C(=O)[C@H](C(C)(C)C)NC(=O)O[C@@H]1C[C@H]1CCCCCc1c(nc3ccccc3c1OCCN(C)c1ccccc1)O2)C(=O)NS(=O)(=O)C1(C)CC1	HCV NS3 protease genotype 3a (3A-1) (Hepatitis C virus genotype 3a, UniProt Q81258)	Ki	18
